I'd be grateful if you could share measured Cmax for these entries.
Assay: Detection of PK in rats
Type: in vivo
Conditions: rat, iv, 0.4 mg/Kg, plasma
Procedure: The analysis was performed using a 4000 QTRAPP series LC/MS/MS mass spectrometer equipped with Agilent 1200 dual injection pumps, 1290 automatic sampler, column oven and ESI source, detecting by the negative ion MRM mode. […]
Numbers only, in µg/mL.

Some entries whose results are on file:
>>> observed_measurement("Cc1c(C2CCN(S(=O)(=O)c3ccc(F)cc3)CC2)c2cc(F)ccc2n1CC(=O)O [Example 24]")
0.757
>>> observed_measurement("Cc1c(C2CCC(NC(=O)c3ccc4ccccc4n3)CC2)c2cc(F)ccc2n1CC(=O)O.Cl (single isomer, unassigned) [Example 6a]")
2.02
>>> observed_measurement("Cc1c(C2CCC(NS(=O)(=O)c3ccc(F)cc3)CC2)c2cc(F)ccc2n1CC(=O)O (single isomer, unassigned) [Example 27b]")
0.802

Shifting focus to the compound that follows.
Value of Cmax reported for the compound Cc1c(C2CCN(S(=O)(=O)c3ccc(F)cc3F)CC2)c2cc(F)ccc2n1CC(=O)O [Example 33] is 1.3

====

experiment: Detection of PK in rats; assay type: in vivo; details: rat, po, p.o. (gavage), 1 mg/Kg, plasma
observed.property: Cmax (ng/mL)
Answers are plain numbers, in ng/mL.

>>> observed_measurement("Cc1c(C2CCC(NC(=O)c3ccc4ccccc4n3)CC2)c2cc(F)ccc2n1CC(=O)O.Cl (single isomer, unassigned)")
2110

Give Cmax for each listed item.
1. Cc1c(C2CCN(S(=O)(=O)c3ccc(F)cc3F)CC2)c2cc(F)ccc2n1CC(=O)O
2. Cc1c(C2CCN(S(=O)(=O)c3ccc(F)cc3)CC2)c2cc(F)ccc2n1CC(=O)O
3. Cc1c(C2CCC(NS(=O)(=O)c3ccc(F)cc3)CC2)c2cc(F)ccc2n1CC(=O)O (single isomer, unassigned) [Example 27b]

Out:
1. 1960
2. 393
3. 631

====

Assay: Detection of PK in Beagle dogs
Assay type: in vivo
Settings: male, dog, iv, 0.4 mg/Kg, plasma
Method: The analysis was performed using a 4000 QTRAPP series LC/MS/MS mass spectrometer equipped with Agilent 1200 dual injection pumps, 1290 automatic sampler, column oven and ESI source, detecting by the negative ion MRM mode. […]
observed.property: AUC(0-inf)

Value of AUC(0-inf) reported for the molecule Cc1c(C2CCN(S(=O)(=O)c3ccc(F)cc3)CC2)c2cc(F)ccc2n1CC(=O)O is 5500 ng·h/mL

====

Target: CRTH2 receptor (Homo sapiens)
Construct: expressed in transfected cells; host or cells: CHO-K1/G cells
Sequence (Q9Y5Y4 1-395): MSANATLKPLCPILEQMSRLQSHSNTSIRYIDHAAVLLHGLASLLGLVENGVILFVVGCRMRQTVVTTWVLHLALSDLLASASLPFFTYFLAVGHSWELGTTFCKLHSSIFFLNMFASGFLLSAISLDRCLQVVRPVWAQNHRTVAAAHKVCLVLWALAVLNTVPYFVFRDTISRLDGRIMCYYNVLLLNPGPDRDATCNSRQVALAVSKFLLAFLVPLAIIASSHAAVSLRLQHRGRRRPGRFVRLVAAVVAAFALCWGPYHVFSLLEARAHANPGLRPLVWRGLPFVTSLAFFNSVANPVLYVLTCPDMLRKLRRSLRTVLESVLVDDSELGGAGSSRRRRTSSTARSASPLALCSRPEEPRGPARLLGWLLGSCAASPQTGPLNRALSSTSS
Experiment: FLIPR detection of inhibitory activity against CRTH2 (CHO-K1/G cells, PGD2 as agonist)
Format: cell-based
Conditions: CHO-K1/G cells with stable expression of CRTH2 receptor, PGD2 at EC80, FLIPR
Counter-ions that a name gives are not always drawn.
observed.property: IC50 (nM)
One number for each entry, in nM.

>>> observed_measurement("Cc1c(C2CCCN(S(=O)(=O)c3ccc(F)cc3)C2)c2cc(F)ccc2n1CC(=O)O (stereo not drawn)")
17.4
>>> observed_measurement("Cc1c(C2CCC(NC(=O)NCc3ccc(F)cc3F)CC2)c2cc(F)ccc2n1CC(=O)O (stereo not drawn)")
969

Give IC50 for each listed item.
1. Cc1c(C2CCC(N(C)C(=O)c3ccc4ccccc4n3)CC2)c2cc(F)ccc2n1CC(=O)O (single isomer, unassigned) [Example 17b, hydrochloride]
2. Cc1c(C2CCC(NS(=O)(=O)c3ccc(F)cc3)CC2)c2cc(F)ccc2n1CC(=O)O (single isomer, unassigned) [Example 27b]
3. Cc1c(C2=CCN(C(=O)NCc3ccc(F)cc3F)CC2)c2cc(F)ccc2n1CC(=O)O
4. Cc1c(C2CCC(N(C)S(=O)(=O)c3ccc(F)cc3)CC2)c2cc(F)ccc2n1CC(=O)O (stereo not drawn)
5. Cc1c(C2CCN(S(=O)(=O)c3ccccc3)CC2)c2cc(F)ccc2n1CC(=O)O
6. Cc1c(C2=CCCN(C(=O)c3cccc4ccccc34)C2)c2cc(F)ccc2n1CC(=O)O

Out:
1. 97.2
2. 57.3
3. 192
4. 138
5. 317
6. 866

Value of IC50 reported for the compound Cc1c(C2CCC(NC(=O)c3cccc4c(F)cccc34)CC2)c2cc(F)ccc2n1CC(=O)O (stereo not drawn) is 545

====

test: Metabolic stability in dog liver microsomal; assay type: in vitro ADME; details: liver microsomes, pH 7.4, 37° C., pH7.4, intrinsic clearance, read-out: Clearance rate
observed.property: CLint scaled

Value of CLint scaled reported for the compound Cc1c(C2CCN(S(=O)(=O)c3ccc(F)cc3)CC2)c2cc(F)ccc2n1CC(=O)O is 1.37 mL/min/kg

====

I'd be grateful if you could share measured Eosinophilic granulocyte Inhibition rate for these entries.
tested on: eosinophilia in airway of Wistar rats induced by DK-PGD2; experiment: Eosinophilia in airway of Wistar rats induced by DK-PGD2, cell count in BALF; type: in vivo; conditions: Wistar rats, 10 mg/Kg preventive dose 0.5 h before DK-PGD2, BALF after 24 h
Give bare numbers, in %.

>>> observed_measurement("Cc1c(Cc2ccc3ccccc3n2)c2cc(F)ccc2n1CC(=O)O [OC000459, reference compound]")
70.77
>>> observed_measurement("Cc1c(C2CCC(NS(=O)(=O)c3ccc(F)cc3)CC2)c2cc(F)ccc2n1CC(=O)O (single isomer, unassigned) [Example 27b]")
76.76
>>> observed_measurement("Cc1c(C2CCC(NC(=O)c3ccc4ccccc4n3)CC2)c2cc(F)ccc2n1CC(=O)O.Cl (single isomer, unassigned) [Example 6a]")
86.85

Value of Eosinophilic granulocyte Inhibition rate reported for the compound Cc1c(C2CCN(S(=O)(=O)c3ccc(F)cc3)CC2)c2cc(F)ccc2n1CC(=O)O [Example 24] is 80.77

====

assay: Detection of PK in Beagle dogs; format: in vivo; conditions: male, dog, iv, 0.4 mg/Kg, plasma
observed.property: half-life (h)
One number for each entry, in h.

Value of half-life reported for the compound Cc1c(C2CCN(S(=O)(=O)c3ccc(F)cc3)CC2)c2cc(F)ccc2n1CC(=O)O [Example 24] is 4.72

====

assay: Detection of PK in rats; assay type: in vivo; conditions: rat, po, p.o. (gavage), 1 mg/Kg, plasma
observed.property: AUC(0-t) (ng·h/mL)
Give bare numbers, in ng·h/mL.

>>> observed_measurement("Cc1c(C2CCN(S(=O)(=O)c3ccc(F)cc3)CC2)c2cc(F)ccc2n1CC(=O)O")
1710
>>> observed_measurement("Cc1c(C2CCC(NS(=O)(=O)c3ccc(F)cc3)CC2)c2cc(F)ccc2n1CC(=O)O (single isomer, unassigned) [Example 27b]")
1600
>>> observed_measurement("Cc1c(C2CCN(S(=O)(=O)c3ccc(F)cc3F)CC2)c2cc(F)ccc2n1CC(=O)O")
4090

Shifting focus to the compound that follows.
Value of AUC(0-t) reported for the compound Cc1c(C2CCC(NC(=O)c3ccc4ccccc4n3)CC2)c2cc(F)ccc2n1CC(=O)O.Cl (single isomer, unassigned) is 5670

====

I'd be grateful if you could share measured half-life for these entries.
experiment: Detection of PK in rats; assay type: in vivo; settings: rat, iv, 0.4 mg/Kg, plasma
Entry format: amount then unit.

Some entries whose results are on file:
>>> observed_measurement("Cc1c(C2CCN(S(=O)(=O)c3ccc(F)cc3)CC2)c2cc(F)ccc2n1CC(=O)O")
"3.4 h"
>>> observed_measurement("Cc1c(C2CCN(S(=O)(=O)c3ccc(F)cc3F)CC2)c2cc(F)ccc2n1CC(=O)O")
"4.5 h"
>>> observed_measurement("Cc1c(C2CCC(NS(=O)(=O)c3ccc(F)cc3)CC2)c2cc(F)ccc2n1CC(=O)O (single isomer, unassigned) [Example 27b]")
"1.58 h"

Shifting focus to the compound that follows.
Value of half-life reported for the compound Cc1c(C2CCC(NC(=O)c3ccc4ccccc4n3)CC2)c2cc(F)ccc2n1CC(=O)O.Cl (single isomer, unassigned) is 1.57 h
